Where these numbers come from: paper PMC9228592

- System: HSC-2 squamous cell carcinoma cells
- measurement notes: Cytotoxicity (MTT, 48 h) against HSC-2 cells
- Assay type: cell-based, human
- conditions used: average CC50 towards HGF, HPLF, HPC divided by CC50 against HSC-2

- molecule: "O=C1C(=Cc2ccc(F)c(F)c2)CN(C(=O)C(Cl)Cl)CC1=Cc1ccc(F)c(F)c1 [Compound 1c]"
  relation sign: "="
  SI (HSC-2): 9.00
- molecule: "O=C1/C(=C/c2ccc3c(c2)OCO3)CN(C(=O)C(Cl)Cl)C/C1=C\\c1ccc2c(c1)OCO2 [Compound 1i]"
  relation sign: "="
  SI (HSC-2): 11.9
- molecule: "O=C1/C(=C/c2ccc(Cl)cc2)CN(C(=O)C(Cl)Cl)C/C1=C\\c1ccc(Cl)cc1 [Compound 1d]"
  relation sign: "="
  SI (HSC-2): 14.4
- molecule: "O=c1[nH]cc(F)c(=O)[nH]1 [Compound 5-FU, 5-fluorouracil, reference compound]"
  relation sign: ">"
  SI (HSC-2): 32.7
- molecule: "O=C1C(=Cc2ccc(Cl)c(Cl)c2)CN(C(=O)C(Cl)Cl)CC1=Cc1ccc(Cl)c(Cl)c1 [Compound 1e]"
  relation sign: "="
  SI (HSC-2): 9.75
- molecule: "O=C1C(=Cc2ccccc2)CNCC1=Cc1ccccc1 [Compound 2a, 3,5-bis(benzylidene)-4-piperidone]"
  relation sign: "="
  SI (HSC-2): 30.0
- molecule: "COc1ccc(/C=C2\\CN(C(=O)C(Cl)Cl)C/C(=C\\c3ccc(OC)c(OC)c3)C2=O)cc1OC [Compound 1g]"
  relation sign: "="
  SI (HSC-2): 23.8
- molecule: "O=C1/C(=C/c2ccc([N+](=O)[O-])cc2)CN(C(=O)C(Cl)Cl)C/C1=C\\c1ccc([N+](=O)[O-])cc1 [Compound 1k]"
  relation sign: "="
  SI (HSC-2): 18.0
- molecule: "CC(=O)N1C/C(=C\\c2ccccc2)C(=O)/C(=C/c2ccccc2)C1 [Compound 2b]"
  relation sign: "="
  SI (HSC-2): 9.02
- molecule: "O=C1C(=Cc2ccccc2)CN(C(=O)C(Cl)Cl)CC1=Cc1ccccc1 [Compound 1a]"
  relation sign: "="
  SI (HSC-2): 6.05
- molecule: "COc1cccc2c1C(=O)c1c(O)c3c(c(O)c1C2=O)C[C@@](O)(C(=O)CO)C[C@@H]3O[C@H]1C[C@H](N)[C@H](O)[C@H](C)O1 [DXR, doxorubicin, reference compound]"
  relation sign: ">"
  SI (HSC-2): 47.8
- molecule: "COc1ccc(/C=C2\\CN(C(=O)C(Cl)Cl)C/C(=C\\c3ccc(OC)cc3)C2=O)cc1 [Compound 1f]"
  relation sign: "="
  SI (HSC-2): 11.5
- molecule: "CN(C)c1ccc(C=C2CN(C(=O)C(Cl)Cl)CC(=Cc3ccc(N(C)C)cc3)C2=O)cc1 [Compound 1l]"
  relation sign: "="
  SI (HSC-2): 9.40
- molecule: "Cc1ccc(C=C2CN(C(=O)C(Cl)Cl)CC(=Cc3ccc(C)cc3)C2=O)cc1 [Compound 1j]"
  relation sign: "="
  SI (HSC-2): 18.5
- molecule: "O=C1C(=Cc2ccc(F)cc2)CN(C(=O)C(Cl)Cl)CC1=Cc1ccc(F)cc1 [Compound 1b]"
  relation sign: "="
  SI (HSC-2): 8.72
